# measurement_notes: calcium flux inhibitors in TRPC4/5HT1a cells, confirmation, counter-screen for TRPC4 inhibitor project, cell-based, second counter screen, HEK293 TRPC4/5HT1a, Fluo-4 (AID 434978)
# protocol_conditions: Fluo-4 calcium flux, at 10 µM, serotonin added to trigger calcium flux
The source made the active and inactive calls.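 Rule for the calls: active = primary screen active whose calcium signal fell more than 3 SD beyond the full-serotonin control mean in both duplicate plates; inactive = the rest.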
Possible outcomes: active, inactive

1. O=C(c1cccs1)N1CCN(c2ncc(Br)cn2)CC1: inactive
2. COc1ccc(/C=C/CN2CCCC(C(=O)c3ccc(OC)c(F)c3)C2)cc1 (centres undefined): inactive
3. COc1ccc(-c2cc(C#N)nc(N3CCNCC3)n2)cc1: inactive
4. Cc1cc(NC(=O)CN2CCc3ccccc3C2)nc2c1c(=O)oc1ccccc12: inactive
5. Cc1cc(NC(=O)c2cnn3cccnc23)nn1CC(=O)Nc1cccnc1: inactive
6. NCCCn1c(C(=O)c2cc(Cl)c(N)c(Cl)c2)c2ccccc2[n+]1[O-]: active
7. O=C(NCc1ccccc1)C1=C[C@H](c2ccc3c(c2)OCO3)C[C@H](OCc2ccc(CO)cc2)O1: active
8. CN(C)C1(CNC(=O)CC(NC(=O)c2ccccc2Cl)c2ccccc2)CCCCC1 (centres undefined): inactive
9. CCN1C(=O)c2cccc3c(S(=O)(=O)Nc4ccccc4OC)ccc1c23: inactive
10. O=C(NC(=S)NNC(=O)[C@H]1C[C@@H]1c1ccccc1)c1cccc(F)c1: inactive
11. COc1ccc(C(CNC(=O)c2cc(SC)ccc2Cl)N(C)C)cc1 (centres undefined): inactive
12. Cc1cc(-c2ccc(C)c(S(=O)(=O)NCCCN(Cc3ccccc3)C(C)C)c2)on1: inactive
13. C=CCn1c(CCNC(=O)C(C)(C)C)nc2ccccc21: inactive
14. O=C(NNC(=S)NC(=O)c1ccccc1Cl)c1cccc([N+](=O)[O-])c1: inactive
15. CN(C)C(CNC(=S)Nc1ccc(F)cc1)c1cccnc1 (centres undefined): inactive
16. COc1ccc(-n2cc(CNCCc3ncc(C)[nH]3)c(-c3ccccc3Cl)n2)cc1: inactive
17. COc1ccc(C(CNCC(=O)Nc2ccccc2F)N(C)C)cc1 (centres undefined): inactive
18. Cc1ccc(C)c(S(=O)(=O)N2CCN(C(=O)CCc3nc4ccccc4c(=O)[nH]3)CC2)c1: inactive
19. CC1CC(C)(C)N(C(=O)CN2C(=O)c3ccccc3C2=O)c2ccccc21 (centres undefined): inactive
20. OC(CNC1CCCc2ccccc21)COc1c(Cl)cccc1Cl (centres undefined): active
21. O=C(Nc1nnc(-c2ccccc2Cl)o1)c1nc2ccccc2s1: inactive
22. CC1(c2ccc(Cl)cc2Cl)OCC(Cn2ccnc2)O1 (centres undefined): inactive
23. CC[C@@H](C(=O)[C@@H](C)[C@@H](O)[C@H](C)CCc1ccc(C)c(O)c1C(=O)O)[C@H]1O[C@](CC)([C@H]2CC[C@](O)(CC)[C@H](C)O2)C[C@@H]1C: inactive
24. Cc1nc(/N=C(\N)NC(=O)NC2CCCCC2)nc2ccccc12: inactive
25. COc1cccc(-c2nn(-c3ccccc3)cc2CN(C)C(C)c2ccncn2)c1 (centres undefined): inactive
26. COc1cc(/C=C/C(=O)c2ccc3c(c2)OCO3)cc(Cl)c1O: inactive
27. Cc1ccc(C)c(OCCCCn2ccnc2)c1: inactive
28. Cc1cc(OCCCn2ccnc2)cc(C)c1Cl: inactive
29. CCCC(=O)N1CCc2cc(-c3nc(N)sc3C)ccc21: inactive
30. Cc1ccc(C)c(-n2cc(CNCCc3cnccn3)c(-c3ccccc3)n2)c1: inactive
31. CCC1(c2ccc(F)cc2)NC(=O)N(CC(=O)c2cc(C)n(C3CC3)c2C)C1=O (centres undefined): inactive
32. CCOC(=O)C1(CCOc2ccccc2)CCN(Cc2ccc(OC)c(O)c2)CC1: inactive
33. CC(=O)Nc1ccc(C2(c3ccc(NC(C)=O)cc3)C(=O)Nc3ccccc32)cc1: inactive
34. COc1ccc(C(CCNCc2ccc(N(C)C)cc2)c2ccccc2OC)cc1 (centres undefined): inactive

---

# experimental_system: Potassium voltage-gated channel subfamily KQT member 2 (Rattus norvegicus) (UniProt O88943)
# Sequence (O88943 whole entry, looked up): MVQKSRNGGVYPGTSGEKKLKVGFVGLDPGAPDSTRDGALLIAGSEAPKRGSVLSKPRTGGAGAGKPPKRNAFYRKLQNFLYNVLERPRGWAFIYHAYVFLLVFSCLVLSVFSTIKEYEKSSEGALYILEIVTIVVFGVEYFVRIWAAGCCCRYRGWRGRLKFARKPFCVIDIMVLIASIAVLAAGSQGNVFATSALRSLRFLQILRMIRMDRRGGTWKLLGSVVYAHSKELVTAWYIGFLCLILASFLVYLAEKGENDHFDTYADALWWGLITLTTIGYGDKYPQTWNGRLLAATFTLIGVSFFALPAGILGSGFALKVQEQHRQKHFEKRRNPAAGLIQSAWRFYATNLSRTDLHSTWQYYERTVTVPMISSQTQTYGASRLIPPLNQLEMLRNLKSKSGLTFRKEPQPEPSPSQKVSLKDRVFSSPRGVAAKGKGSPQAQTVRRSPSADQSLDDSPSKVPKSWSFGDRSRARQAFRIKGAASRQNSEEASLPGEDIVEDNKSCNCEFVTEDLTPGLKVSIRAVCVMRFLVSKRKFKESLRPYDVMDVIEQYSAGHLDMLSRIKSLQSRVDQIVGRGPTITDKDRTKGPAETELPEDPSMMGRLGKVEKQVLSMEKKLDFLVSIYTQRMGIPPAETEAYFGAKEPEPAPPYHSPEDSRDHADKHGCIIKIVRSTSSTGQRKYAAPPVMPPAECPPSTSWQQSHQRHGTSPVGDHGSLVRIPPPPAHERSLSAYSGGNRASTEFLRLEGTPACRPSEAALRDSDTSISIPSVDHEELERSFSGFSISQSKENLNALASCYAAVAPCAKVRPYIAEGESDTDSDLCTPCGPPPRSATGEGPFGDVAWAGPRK
# measurement_notes: rat KCNQ2 channel potentiation, selectivity assay for KCNQ1 potentiator project, KCNQ2-CHO-K1 cells (AID 493009);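 note: assay conditions were tuned for KCNQ1 rather than KCNQ2 modulators; signal is max minus min fluorescence divided by baseline after thallium stimulus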
# protocol_conditions: FluxOR thallium flux fluorescence, at 10 µM, scaled: buffer 0, activator control 100
The source made the active and inactive calls.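 How the source made its calls: active means mean duplicate potentiation above the buffer control mean plus 5 SD of buffer wells; inactive means the rest.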
Possible outcomes: yes (active), no (inactive)

1) COc1cc2c(cc1OC)CN(C(=O)CNC(=O)c1ccc(OC(F)F)cc1)CC2: no
2) Cc1ccc(-n2c(=S)[nH]c3sc4c(c3c2=O)CCC4)cc1: yes
3) COc1cccc2sc(Nc3nnc(-c4ccccc4Cl)o3)nc12: no
4) CC(Oc1ccc(Br)cc1)C(=O)N1CCC(C(N)=O)CC1 (stereo unspecified): no
5) Cc1cc(C(=O)N/N=C/c2cccs2)no1: no
6) COc1ccc(S(=O)(=O)NCCCN2CCOCC2)cc1F: no

---

# measurement_notes: thallium flux activation in parental CHO cells, counter-screen for KCNQ1 potentiator project (AID 493006);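 for activation: fluorescence ratio of max minus min over baseline after K+ and Tl+ depolarization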
# protocol_conditions: parental CHO-K1 cells, FluxOR thallium flux, at 10 µM
Activity calls are given as the source filed them.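 How the source made its calls: active means duplicate-averaged activation above buffer control mean plus 5 SD of those controls; inactive means the rest.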
Possible outcomes: active, inactive

1. COCC(=O)Nc1nnc(SCC(=O)N2C(C)CCCC2C)s1 (stereo not drawn): inactive
2. Cc1nnc(C)n1/N=C/c1cc(Br)cc(Br)c1O: active
3. CSCC(C)N1CCC(n2nccc2NC(=O)CCOc2ccccc2)CC1 (stereo not drawn): inactive
4. Cc1cc(N=Cc2cc(Br)ccc2O)no1: active
5. CN(C)c1ccc(-c2nn3c(-c4ccccc4Cl)nnc3s2)cc1: inactive
6. CC(Oc1ccc(Cl)cc1Cl)C(=O)NC(=S)N1CCc2ccccc21 (stereo not drawn): active
7. COC(=O)N1C(=O)[C@@](Cc2ccccc2)(c2ccccc2)N1C(=O)OC: inactive
8. Cc1nc2c3cc(F)ccc3n(CCN3CCCCC3)c2s1: inactive
9. Cc1cc(/C=N/n2cnnc2)c(C)n1-c1ccc(Cl)cc1Cl: inactive
10. COc1ccc(C2C(C(=O)c3ccccc3)=C(C)Nc3nc4ccccc4n32)cc1OC (stereo not drawn): inactive
11. Cc1cccc(C(=O)NC(=S)NNC(=O)c2ccccc2Cl)c1: inactive
12. O=C(Nc1nc(-c2cc(F)ccc2F)cs1)c1ccccn1: inactive
13. COC(=O)c1ccc(COC(=O)c2ccccn2)cc1: inactive
14. CCOC(=O)c1c(NC(=S)NCCc2ccccc2)sc2c1CC(C(C)C)OC2 (stereo not drawn): inactive
15. Cc1ccccc1C([O-])=Nc1ccc[n+](-c2nc3ccccc3nc2NS(=O)(=O)c2ccccc2)c1: inactive
16. Oc1cccc2ccc(Nc3ccccn3)nc12: inactive
17. O=C(COC(=O)C12CC3CC(CC(C3)C1)C2)NCCCc1ccccc1: inactive
18. O=C(NC(=S)Nc1ccccc1N1CCCC1)c1ccc([N+](=O)[O-])cc1: active
19. Cc1cccc(S(=O)(=O)Nc2cccc3c2C(=O)c2ccccc2-3)c1: inactive
20. O=C(NC(=S)Nc1ccccc1)c1cccs1: active
21. CCOc1ccc(-c2noc(CCC(=O)NC3CCCC3)n2)cc1OC: inactive
22. CC(Oc1ccc(Cl)cc1)C(=O)NNC(=S)NC(=O)c1ccco1 (stereo not drawn): inactive
23. C/C(=N\NC(=O)c1cc2ccccc2cc1O)c1cc2ccccc2o1: active

---

# Tested on: TRPC4 beta (transient receptor potential cation channel C4), mouse
# measurement_notes: positive allosteric modulators of mouse TRPC4, confirmation, cell-based, Fluo-4, HEK293 TRPC4beta/mu-opioid (AID 2555)
# protocol_conditions: DAMGO EC20, Fluo-4 calcium flux, at 10 µM
Calls of active or inactive are those of the source.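 Rule for the calls: active = primary screen hit whose calcium fluorescence ratio, in both repeats, exceeds the weak agonist control mean by 3 SD; inactive = the rest.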
Possible outcomes: y = active, n = inactive

1) CN(C)/C=C1\C(=O)N(c2ccc([N+](=O)[O-])cc2)N=C1c1ccccc1: n
2) COc1cc(C(=O)NC(=S)NNC(=O)[C@H]2C[C@@H]2c2ccccc2)cc(OC)c1OC: n
3) c1ccc(Nc2nc(Nc3ccccc3)nc(N3CCNCC3)n2)cc1: n
4) CCc1nc(NCCc2ccccn2)c2nnn(Cc3ccccc3F)c2n1: n
5) CCOC(=O)C1(CC2CC2)CCN(Cc2ccc3cccc(F)c3n2)CC1: n
6) COc1cccc(CC2(CO)CCCN(Cc3ccccc3-c3ccco3)C2)c1 (stereo not given): n
7) Cc1ccn2cc(CCNC(=O)C3CC=CCC3C(=O)O)nc2c1 (stereo not given): n
8) CCCCN(CC)CCCNC(=O)Cn1nc(Cc2ccncc2)c2ccccc2c1=O: n
9) COc1ccccc1C(=O)NNC(=S)NC(=O)c1sc2ccccc2c1Cl: n
10) Cc1ccc(C2N(c3ccc(Cl)c(Cl)c3)C(=O)C3CCCN32)o1 (stereo not given): y

---

# experimental_system: Potassium voltage-gated channel subfamily KQT member 1 (Homo sapiens) (UniProt P51787)
# Sequence (P51787 whole entry, looked up): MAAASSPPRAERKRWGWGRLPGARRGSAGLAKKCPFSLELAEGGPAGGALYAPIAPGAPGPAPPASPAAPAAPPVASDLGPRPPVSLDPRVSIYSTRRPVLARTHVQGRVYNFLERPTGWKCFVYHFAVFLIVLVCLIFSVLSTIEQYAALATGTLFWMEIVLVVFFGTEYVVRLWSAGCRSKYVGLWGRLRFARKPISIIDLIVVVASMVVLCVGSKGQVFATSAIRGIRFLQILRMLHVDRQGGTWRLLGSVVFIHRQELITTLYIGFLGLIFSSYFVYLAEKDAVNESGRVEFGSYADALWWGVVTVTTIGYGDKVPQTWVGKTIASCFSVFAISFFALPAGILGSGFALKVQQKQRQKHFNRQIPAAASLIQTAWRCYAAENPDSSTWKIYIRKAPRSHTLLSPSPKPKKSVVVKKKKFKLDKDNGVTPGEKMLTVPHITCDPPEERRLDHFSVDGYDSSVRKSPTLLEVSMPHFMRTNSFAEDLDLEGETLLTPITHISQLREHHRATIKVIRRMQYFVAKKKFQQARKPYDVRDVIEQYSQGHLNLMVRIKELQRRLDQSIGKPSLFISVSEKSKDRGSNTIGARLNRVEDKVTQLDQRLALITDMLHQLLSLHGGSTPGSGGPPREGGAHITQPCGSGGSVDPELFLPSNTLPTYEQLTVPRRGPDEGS
# measurement_notes: KCNQ1 potassium channel potentiators, confirmation, FluxOR thallium flux, CHO cells, duplicates (AID 493007)
# protocol_conditions: KCNQ1 cell line, FluxOR thallium flux fluorescence, at 10 µM, % of reference activator effect, buffer zero
Calls of active or inactive are those of the source.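 How the source made its calls: active means potentiation averaged over duplicate wells exceeding buffer-only control mean by more than 3 SD; inactive means the rest.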
Possible outcomes: 1 (active), 0 (inactive)

1) Oc1c(Br)cc(Br)cc1C=Nc1ccc2c(c1)OCO2: 0
2) Cc1noc(C)c1CSc1ncnc2sc3c(c12)CCCCC3: 1
3) Cc1cc(C)n(-c2nc3ccccc3nc2N2CCN(C(=O)c3ccc(Cl)cc3)CC2)n1: 0
4) CC(CNC(=O)COc1ccccc1)OC(=O)Nc1ccc(Cl)c(Cl)c1 (stereo unspecified): 0
5) CCOC(=O)CSc1nc2ccccc2n2c(C)nnc12: 0
6) CCOc1cc(CNCCCN2CCOCC2)ccc1OCC(=O)NC(C)(C)C: 0
7) CCN(CC)CCCNC(=O)c1c(O)c2cc(F)cc3c2n(c1=O)C(C)CC3 (stereo unspecified): 0
8) CCC1CCCCN1S(=O)(=O)c1ccc(NC(=O)c2cccnc2)cc1 (stereo unspecified): 0
9) COc1ccccc1C(=O)NNC(=O)c1nn(Cc2ccccc2)c(=O)c2ccccc12: 0
10) COc1ccc(C(=O)NC(=S)NNC(=O)c2ccc(C)cc2)cc1: 1
11) CCC(O)(CC)C(=O)NN(C(=O)CCl)c1ccccc1: 0
